meta.source: ChEMBL document CHEMBL1255477

- System: Stenotrophomonas maltophilia
- Experiment description: Antimicrobial activity against Stenotrophomonas maltophilia by broth dilution method
- Type: functional
Assay metric: MIC90 (µg/mL)
Give the value in µg/mL but do not write µg/mL after it.

>  <Compound>
CC(C)(O/N=C(\C(=O)N[C@@H]1C(=O)N2C(C(=O)[O-])=C(C[n+]3ccccc3)CS[C@H]12)c1csc(N)n1)C(=O)O

>  <Target or system>
Stenotrophomonas maltophilia

>  <U>
µg/mL

>  <MIC90>
16

$$$$

Record summary for CC1(C)[C@H](NC(=O)/C(=N\OCc2cc(=O)c(O)cn2O)c2csc(N)n2)C(=O)N1OS(=O)(=O)O (stereo in doubt) : reported MIC90 = 2
